assay: qHTS assay to identify small molecule agonists of the peroxisome proliferator-activated receptor delta (PPARd) signaling pathway - cell viability counter screen (AID 743211); conditions: PPARd-bla HEK293H viability, CellTiter-Glo luminescence, 17 h; series mostly up to 62.6 µM; also: nearly all actives have a fitted effect of over 55% in size
Results filed as inconclusive are left out. Calls of active or inactive are those of the source. Calls follow the shape of the dose curve; as a rule, active = well fitted cell-killing curve with a large enough effect in the repeat runs; inconclusive = weak or mixed curves; inactive = no such curve, though single readings can be large or run the other way.
Your response should consist of one outcome taken from active, inactive

Recorded results for 8 compounds are shown here.
O=C(Nc1cccc(Cl)c1)OCC#CCCl ... active
CN1CCC(Nc2ncc3ncnc(Nc4ccc(F)c(Cl)c4)c3n2)CC1 ... active
CNc1ccc(O)cc1 ... active
Cc1cc(C2CCCCC2)n(O)c(=O)c1 ... active
CCCCN(CCCC)c1ccc(C(=O)c2ccccc2C(=O)O)c(O)c1 ... active
O=C(OCC1CO1)C1CCCCC1C(=O)OCC1CO1 (stereo unspecified) ... inactive
C=CC(=O)OCC(CO)(COCC(COC(=O)C=C)(COC(=O)C=C)COC(=O)C=C)COC(=O)C=C ... active
COC(=O)C1=C(C)NC(C)=C(C(=O)OCCc2ccc(N3CCN(C(c4ccccc4)c4ccccc4)CC3)cc2)C1c1cccc([N+](=O)[O-])c1 (stereo unspecified) ... inactive

Assay outcome for COc1cc(-c2nc(NC(=O)c3cc4cc(C)cc(C)c4n3CC(=O)O)sc2CCC2CCCCC2)c(OC)cc1Cl : what was it?
active

Any idea what this test logged for NC(=O)NS(=O)(=O)c1ccc(N)cc1 ?
inactive

Give the logged outcome of this assay for the following compound: CCCCCCCCCCCC[N+](C)(C)CCCCCCCCCCCC
active

* * *

target: Aryl hydrocarbon receptor (Homo sapiens) (UniProt P35869); assay: qHTS assay to identify small molecule that activate the aryl hydrocarbon receptor (AhR) signaling pathway (AID 743085); details: HepG2 AhR-luc (HG2L7.5c1), luciferase, 24 h; series mostly up to 70.3 µM; also: nearly all actives have a fitted effect of over 15% in size;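 as to activation: HG2L7.5c1 human HepG2 liver cells with stably integrated DRE-driven firefly reporter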
Sequence (P35869 whole entry, looked up): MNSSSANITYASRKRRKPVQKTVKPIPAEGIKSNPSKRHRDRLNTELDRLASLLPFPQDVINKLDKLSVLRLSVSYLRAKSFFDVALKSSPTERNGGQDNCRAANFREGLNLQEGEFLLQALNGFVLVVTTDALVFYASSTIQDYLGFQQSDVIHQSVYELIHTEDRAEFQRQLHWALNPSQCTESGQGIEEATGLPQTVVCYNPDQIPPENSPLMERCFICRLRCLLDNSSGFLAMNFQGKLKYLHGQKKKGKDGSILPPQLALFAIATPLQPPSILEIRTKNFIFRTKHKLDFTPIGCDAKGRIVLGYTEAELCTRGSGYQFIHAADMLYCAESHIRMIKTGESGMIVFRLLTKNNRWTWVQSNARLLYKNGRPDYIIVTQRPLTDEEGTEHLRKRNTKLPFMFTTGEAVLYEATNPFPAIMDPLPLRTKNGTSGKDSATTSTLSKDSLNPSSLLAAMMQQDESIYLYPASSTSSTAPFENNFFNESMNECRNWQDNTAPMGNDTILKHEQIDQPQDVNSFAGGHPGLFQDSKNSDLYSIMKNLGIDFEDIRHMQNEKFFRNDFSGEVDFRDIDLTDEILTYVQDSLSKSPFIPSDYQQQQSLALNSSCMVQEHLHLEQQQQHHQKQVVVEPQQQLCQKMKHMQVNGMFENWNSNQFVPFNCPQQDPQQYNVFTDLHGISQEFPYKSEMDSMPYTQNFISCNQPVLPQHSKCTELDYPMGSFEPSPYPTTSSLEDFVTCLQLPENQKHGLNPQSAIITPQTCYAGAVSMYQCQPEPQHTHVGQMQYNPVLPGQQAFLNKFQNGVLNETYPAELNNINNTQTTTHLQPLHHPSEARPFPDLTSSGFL
Results filed as inconclusive are left out. Active and inactive are the calls of the source. The call rests on the fitted dose curve; in most records, active means well fitted activation curve with a large enough effect in the repeat runs; inconclusive means weak or mixed curves; inactive means no such curve, though single readings can be large or run the other way.
Answer with one of the outcomes yes (active), no (inactive)

Consider the worked cases shown below.
On1ccccc1=S ... no
CC(=O)N1CCN(c2ccc(OC[C@H]3CO[C@](Cn4ccnc4)(c4ccc(Cl)cc4Cl)O3)cc2)CC1 ... yes
Oc1ccc(C2(c3ccc(O)cc3)CC3CC2C2CCCC32)cc1 (stereo unspecified) ... no

Recorded test call requested for Cc1[nH]cnc1C[C@H]1CCc2c(C)c3ccccc3n2C1=O
no

Can you look up the reported call for CCCCCCCCCCn1cc[n+](CCCCCCCCCC)c1C for me?
no

Outcome? [Cl][Bi]([Cl])([c]1ccccc1)([c]1ccccc1)[c]1ccccc1
no

* * *

test: qHTS assay to identify small molecule agonists of the NFkB signaling pathway - cell viability counter screen (AID 1159515); conditions: NFkB-bla ME-180 viability, CellTiter-Glo luminescence, 5 h; series mostly up to 61 µM; also: nearly all actives have a fitted effect of over 55% in size
Records with an inconclusive call do not appear. The source made the active and inactive calls. The call rests on the fitted dose curve.
Please state which outcome applies, choosing from active, inactive

NC(=O)N1C(=O)C(C(=O)c2cc(Cl)cs2)c2cc(F)c(Cl)cc21 (stereo unspecified) ... inactive
CCCCCCCCOc1ccccc1C(=O)Nc1ccc(C(=O)OCC[N+](C)(CC)CC)cc1 ... active
CCC(C)Nc1ccc(NC(C)CC)cc1 (stereo unspecified) ... active
Oc1cccc2cc3cccc(O)c3c(O)c12 ... inactive
COc1ccc(-c2ccc3cc(C(=O)O)ccc3c2)cc1C12CC3CC(CC(C3)C1)C2 ... active

How was Nc1ccc(N)c2ccccc12 classified in this test?
active

Field: outcome | Entry: Cc1cccc(CN2CCN(C(c3ccccc3)c3ccc(Cl)cc3)CC2)c1 (stereo unspecified)
inactive

// return assay outcome for Cc1cc(O)c2ccccc2c1O
active

Identify the outcome logged in this assay for the compound shown: Fc1ccc(C(c2ccc(F)cc2)N2CCN(C/C=C/c3ccccc3)CC2)cc1
inactive

What did the test return for CC[C@@]1(O)C(=O)OCc2c1cc1n(c2=O)Cc2cc3c(CN(C)C)c(O)ccc3nc2-1 ?
inactive

Outcome logged for CC/C(=C(\c1ccc(O)cc1)c1ccc(OCCN(C)C)cc1)c1ccccc1 in this assay:
active

* * *

biological target: Aryl hydrocarbon receptor (Homo sapiens) (UniProt P35869); assay: qHTS assay to identify small molecule that activate the aryl hydrocarbon receptor (AhR) signaling pathway (AID 743085); settings: HepG2 AhR-luc (HG2L7.5c1), luciferase, 24 h; series mostly up to 70.3 µM; also: nearly all actives have a fitted effect of over 15% in size;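 as to activation: HG2L7.5c1 human HepG2 liver cells with stably integrated DRE-driven firefly reporter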
Inconclusive results are not listed. Active and inactive are the calls of the source. Calls come from the whole dose curve; as a rule, active = well fitted activation curve with a large enough effect in the repeat runs; inconclusive = weak or mixed curves; inactive = no such curve, though single readings can be large or run the other way.
Lab note: assign the record to one of active, inactive

Worked examples, 4 compounds total:
Cc1cccc2c1cc1ccc3cccc4ccc2c1c34 ... active
OC1(c2ccc(Cl)c(C(F)(F)F)c2)CCN(CCCC(c2ccc(F)cc2)c2ccc(F)cc2)CC1 ... inactive
O=C(OCC1CO1)C1CCCCC1C(=O)OCC1CO1 (configuration not stated) ... inactive
CC/C(=C(\c1ccc(O)cc1)c1ccc(OCCN(C)C)cc1)c1ccccc1 ... inactive

Entry Clc1ccc2cc3ccccc3cc2c1 : call = ?
inactive

Returns: the outcome recorded for NC(=NCCCCCCN=C(N)/N=C(\N)Nc1ccc(Cl)cc1)/N=C(\N)Nc1ccc(Cl)cc1 in this assay.
inactive

So what was the verdict on O=C(c1ccc(F)cc1)C1CCN(CCn2c(=O)[nH]c3ccccc3c2=O)CC1 in this test?
inactive

Dear all, I need the recorded test outcome for CN(C)[C@@H]1C(=O)C(C(N)=O)=C(O)[C@@]2(O)C(=O)C3=C(O)c4c(O)ccc(Cl)c4[C@@H](O)[C@H]3C[C@@H]12 , thank you.
inactive

# fetch the recorded call for CSc1ccc(/C=C2/C(C)=C(CC(=O)O)c3cc(F)ccc32)cc1 here
active

Hi, do you know how CCOc1ccc2nc3cc(N)ccc3c(N)c2c1 came out in this test?
active

What call does the record list for CC(C)(C)NC(=O)[C@@H]1C[C@@H]2CCCC[C@@H]2CN1C[C@@H](O)[C@H](Cc1ccccc1)NC(=O)[C@H](CC(N)=O)NC(=O)c1ccc2ccccc2n1 ?
inactive

GET /call?item= COc1ccc(CN2CCN(C(c3ccc(F)cc3)c3ccc(F)cc3)CC2)c(OC)c1OC returns the recorded outcome of this test.
inactive

What was the test verdict on CC(=O)SC[C@@H](Cc1ccccc1)C(=O)NCC(=O)OCc1ccccc1 ?
inactive

Hello, I am checking results. What call was entered for CCCCCCCCCCCC[N+](C)(C)CCCCCCCCCCCC ?
inactive

Write down the call the test reported for this compound. Item: N=C1N=C(N)c2cc3ccccc3cc21
active

* * *

assay: qHTS RealTime-Glo MT Cell Viability Assay in HEK293 cells - 32 hour (AID 1224868); conditions: RealTime-Glo luminescence; series mostly up to 76.8 µM; also: nearly all actives have a fitted effect of over 50% in size; also: potency is read from the fitted curve at half-maximal effect
Inconclusive results are not listed. Activity calls are given as the source filed them. Calls come from the whole dose curve; as a rule, active = well fitted cell-killing curve with a large enough effect in the repeat runs; inconclusive = weak or mixed curves, or effect the other way; inactive = flat fitted curve, though single readings scatter.
Property measured: Potency

Field: example entries. Status: answers known.
N=C1N=C(N)c2cc3ccccc3cc21 ... 19.5 µM (active)
Nc1c(Cl)cc(Cl)cc1Cl ... inactive
CN1CCC(Nc2ncc3ncnc(Nc4ccc(F)c(Cl)c4)c3n2)CC1 ... 10.7 µM (active)
CCC(C)(C)C1CCCCC1OC(C)=O (stereo not given) ... inactive
COc1cc(-c2ccc(N=C=O)c(OC)c2)ccc1N=C=O ... inactive
CCCCN(CCCC)c1ccc(C(=O)c2ccccc2C(=O)O)c(O)c1 ... inactive
C[C@@H](NCCCc1cccc(C(F)(F)F)c1)c1cccc2ccccc12 ... 23.9 µM (active)
CCCCCCCCn1sc(Cl)c(Cl)c1=O ... 3.89 µM (active)

Hey, can you go through the list below and give me Potency for every item?
1. CCCCCCCCCCCCCCCCCC[N+](C)(C)Cc1ccccc1
2. COc1ccc(-c2ccc3cc(C(=O)O)ccc3c2)cc1C12CC3CC(CC(C3)C1)C2
3. CCCCCOC(=O)CCCC

1. 2.78 µM (active)
2. 5.35 µM (active)
3. inactive

// each listed compound needs a value for Potency
1. CCC(N)(CO)CO
2. CCOC(=O)O[C@H](C)OC(=O)c1ccc2c(c1)cc(C(=O)NC1CCN(C(C)C)CC1)n2Cc1cc(-c2ccc(Cl)s2)on1
3. C=CC(=O)OCCn1c(=O)n(CCOC(=O)C=C)c(=O)n(CCOC(=O)C=C)c1=O
4. CCCCCCCCOc1ccccc1C(=O)Nc1ccc(C(=O)OCC[N+](C)(CC)CC)cc1
5. ON=C1CCCC1

1. inactive
2. 11.5 µM (active)
3. 11 µM (active)
4. 19 µM (active)
5. 25.4 µM (active)

Items follow; give Potency for each.
1. CCCCCCCC/C=C\CCCCCCCCOCCO
2. CCc1cc(SCc2sc(-c3ccc(C(F)(F)F)cc3)nc2CN2CCN(c3ccc(OC)cc3)CC2)ccc1OCC(=O)O
3. On1ccccc1=S

1. 3.19 µM (active)
2. 19.5 µM (active)
3. 4.32 µM (active)

Would you be so kind as to report Potency for each listed record?
1. CCCCCCCCCCCC[N+](C)(C)CCCCCCCCCCCC
2. CC(C)n1nc(-c2cc3cc(O)ccc3[nH]2)c2c(N)ncnc21

5.49 µM (active)
0.239 µM (active)
